# Assayed target: Mu-type opioid receptor (Homo sapiens, UniProt P35372)
# Sequence (P35372 whole entry): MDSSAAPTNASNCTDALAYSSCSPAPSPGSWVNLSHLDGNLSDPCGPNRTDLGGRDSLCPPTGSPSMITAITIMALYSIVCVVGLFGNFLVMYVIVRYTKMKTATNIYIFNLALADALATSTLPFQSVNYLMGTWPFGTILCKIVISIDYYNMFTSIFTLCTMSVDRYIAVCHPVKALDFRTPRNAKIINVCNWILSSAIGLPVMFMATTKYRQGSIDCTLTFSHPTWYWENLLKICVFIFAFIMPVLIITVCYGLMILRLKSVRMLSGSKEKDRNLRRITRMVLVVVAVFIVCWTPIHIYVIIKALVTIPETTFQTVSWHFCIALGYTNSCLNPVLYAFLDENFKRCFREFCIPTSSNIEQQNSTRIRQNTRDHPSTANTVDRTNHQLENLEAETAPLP
# Experiment: Binding affinity towards human mu-opioid receptors in CHO (Chinese hamster ovary) cell lines
Experimental endpoint: pKi
Remember, pKi is on a log scale: it is -log10 of the molar concentration.

-- ask // fetch Mu-type opioid receptor (Homo sapiens, UniProt P35372) pKi for CC[C@H](NC(=O)c1c(CN2CCN(C(C)C)CC2)c(-c2ccccc2)nc2ccccc12)c1ccccc1
-- reply 7.01

-- ask Any idea what pKi came out for C[C@H](NC(=O)c1c(CN2CCNCC2)c(-c2ccccc2)nc2ccccc12)C1CCCCC1 on Mu-type opioid receptor (Homo sapiens, UniProt P35372)?
-- reply 6.76

-- ask Provide value of pKi for this record tested with Mu-type opioid receptor (Homo sapiens, UniProt P35372): C[C@H](NC(=O)c1c(CN2CCC(N3CCCCC3)CC2)c(-c2ccccc2)nc2ccccc12)C1CCCCC1
-- reply 5.88

-- ask Recall the recorded pKi for CC(C)N1CCN(Cc2c(-c3ccccc3)nc3ccccc3c2C(=O)NC2CCCCC2)CC1 with Mu-type opioid receptor (Homo sapiens, UniProt P35372) and state it.
-- reply 6.65

-- ask Quick check: pKi on Mu-type opioid receptor (Homo sapiens, UniProt P35372), item C[C@H](NC(=O)c1c(CN2CCC(N)CC2)c(-c2ccccc2)nc2ccccc12)C1CCCCC1 ?
-- reply 5.75

-- ask Form entry - test system: Mu-type opioid receptor (Homo sapiens, UniProt P35372); read-out: pKi; compound: CC[C@H](NC(=O)c1c(CN2CCN(C3CCCCC3)CC2)c(-c2ccccc2)nc2ccccc12)c1ccccc1
-- reply 7.80

-- ask Find the measured pKi: item CC[C@H](NC(=O)c1c(CN(C)C)c(-c2ccccc2)nc2ccccc12)c1ccccc1 , target or system Mu-type opioid receptor (Homo sapiens, UniProt P35372).
-- reply 5.77

-- ask // map CC[C@H](NC(=O)c1c(CN2CCC(N3CCCCC3)CC2)c(-c2ccccc2)nc2ccccc12)c1ccccc1 to recorded pKi (system: Mu-type opioid receptor (Homo sapiens, UniProt P35372))
-- reply 6.04

-- ask # query: pKi | item CC(C)N1CCN(Cc2c(-c3ccccc3)nc3ccccc3c2C(=O)N[C@@H](C)C2CCCCC2)CC1 | system: Mu-type opioid receptor (Homo sapiens, UniProt P35372)
-- reply 6.71

-- ask Reported pKi for Mu-type opioid receptor (Homo sapiens, UniProt P35372), given CC(C)[C@H](NC(=O)c1c(CN2CCN(C(C)C)CC2)c(-c2ccccc2)nc2ccccc12)c1ccccc1 ?
-- reply 6.92

-- ask Look up pKi with Mu-type opioid receptor (Homo sapiens, UniProt P35372) for this compound: CC[C@H](NC(=O)c1c(CN2CCNCC2)c(-c2ccccc2)nc2ccccc12)c1ccccc1
-- reply 6.69

-- ask Give the reported pKi for CC[C@H](NC(=O)c1c(O)c(-c2ccccc2)nc2ccccc12)c1ccccc1 [TALNETANT] (system: Mu-type opioid receptor (Homo sapiens, UniProt P35372)).
-- reply 5.73
